Where these numbers come from: ChEMBL document CHEMBL1121794

Assay: Partition coefficient (logD7.4)
Conditions: octanol/water, pH 7.4
reported.property: logD
Returns: the value as a bare number; no unit string appended.

So for O=C(NC1CCN(CCc2c[nH]c3ccccc23)CC1)c1ccccc1 , the logged logD turned out to be 2.27

====

# maps each entry to its Log k'
Enter a number only.

[[record]]
molecule = "CN(C)CCCN1c2ccccc2Sc2ccc(Cl)cc21"
obs_value = 1.911

[[record]]
molecule = "CC(CN1c2ccccc2Sc2ccccc21)N(C)C (stereo not drawn)"
obs_value = 1.512

[[record]]
molecule = "O=C(NC1CCN(CCc2c[nH]c3ccccc23)CC1)c1ccccc1"
obs_value = 0.536

[[record]]
molecule = "CCN(CC)CCOc1ccc2c(c1)C(=O)c1cc(OCCN(CC)CC)ccc1-2"
obs_value = 0.701

[[record]]
molecule = "CN(C)CCC=C1c2ccccc2COc2ccccc21 [DOXEPIN]"
obs_value = 1.025

[[record]]
molecule = "CN1CCC(=C2c3ccccc3C=Cc3ccccc32)CC1"
obs_value = 1.715

[[record]]
molecule = "CN(C)CCCN1c2ccccc2Sc2ccccc21"
obs_value = 1.465


Here is the next item to consider.
Value of Log k' reported for the molecule CCC(=O)O[C@](Cc1ccccc1)(c1ccccc1)[C@H](C)CN(C)C is 0.656

====

Threshold 0.9. Log k' below it: met. Log k' at it or above: not met.

Use the examples below as a reference point.
[[record]]
compound = "Cc1cccc(C)c1NC(=O)C1CCCCN1C (stereo unspecified) [MEPIVACAINE]"
class_label = "met"

[[record]]
compound = "CC(=O)c1ccc2c(c1)N(CCCN1CCN(CCO)CC1)c1ccccc1S2"
class_label = "met"

[[record]]
compound = "COc1ccccc1N1CCN(CCCC(=O)c2ccc(F)cc2)CC1"
class_label = "not met"

[[record]]
compound = "CCCCOc1cc(C(=O)NCCN(CC)CC)c2ccccc2n1"
class_label = "not met"


Okay, next one:
Lab log: compare recorded Log k' with 0.9; is it strictly lower for OCCN1CCN(CCCN2c3ccccc3Sc3ccc(Cl)cc32)CC1 ?
not met

====

Test: physchem
Settings: octanol/water
Description: Partition coefficient (logD) (HPLC)
Just a reminder that ties go to Condition not met: only logD strictly below 2 counts as Condition met.

Decide: logD of CCN(CC)CCOc1ccc2c(c1)C(=O)c1cc(OCCN(CC)CC)ccc1-2 [TILORONE] strictly below 2?
Condition met

hey, is logD for CN(C)CCC(c1ccc(Cl)cc1)c1ccccn1 (stereo unspecified) [CHLORPHENIRAMINE] lower than 2 or not?
Condition met

Take the compound CN1CCCCC1CCN1c2ccccc2Sc2ccc([S+](C)[O-])cc21 (stereo unspecified) [MESORIDAZINE] and say whether its logD is less than 2.
Condition met

is_below(logD, 2) for CN(C)CCC=C1c2ccccc2COc2ccccc21 [DOXEPIN] ?
Condition not met

Hello, is logD of the following compound strictly smaller than 2? Cc1cccc(C)c1NC(=O)C1CCCCN1C (stereo unspecified) [MEPIVACAINE]
Condition met

====

Rule: Log k' of 0.8 or more gives t; anything lower gives f.

Here are 4 compounds together with their reported answers.
[[record]]
compound = "CN(C)CCCN1c2ccccc2Sc2ccc(Cl)cc21"
class_label = "t"

[[record]]
compound = "CN(C)CCC=C1c2ccccc2COc2ccccc21 [DOXEPIN]"
class_label = "f"

[[record]]
compound = "CN(C)CCCN1c2ccccc2Sc2ccccc21"
class_label = "t"

[[record]]
compound = "O=C(NC1CCN(CCc2c[nH]c3ccccc23)CC1)c1ccccc1"
class_label = "f"


We next turn to a different compound, shown below.
Determine whether measured Log k' meets or exceeds 0.8 for CN1CCC(=C2c3ccccc3C=Cc3ccccc32)CC1
t

====

Under this convention, Satisfied denotes Log k' strictly below 0.8 and Not satisfied denotes Log k' at or above 0.8.

[[record]]
compound = "Cc1cccc(C)c1NC(=O)C1CCCCN1C (stereo not given) [MEPIVACAINE]"
class_label = "Satisfied"

[[record]]
compound = "Clc1ccccc1"
class_label = "Satisfied"

[[record]]
compound = "c1ccc2nc3ccccc3cc2c1"
class_label = "Satisfied"


Is the reported Log k' for COc1ccccc1 strictly below 0.8?
Satisfied

Say whether its Log k' is strictly beneath 0.8. Entry: CN(C)CCC(c1ccc(Cl)cc1)c1ccccn1 (stereo not given)
Satisfied

Is the reported Log k' for CCC(=O)O[C@](Cc1ccccc1)(c1ccccc1)[C@H](C)CN(C)C strictly below 0.8?
Satisfied

Hi there! Is Log k' for CN(C)CCCN1c2ccccc2CCc2ccc(Cl)cc21 below 0.8, do you know?
Not satisfied

Decide: Log k' of CN1CCN(CCCN2c3ccccc3Sc3ccc(Cl)cc32)CC1 strictly below 0.8?
Not satisfied

Strictly below 0.8: is that where Log k' of CCCCOc1cc(C(=O)NCCN(CC)CC)c2ccccc2n1 sits?
Not satisfied

====

Organism: Rattus norvegicus
reported.property: Log 1/ED50
Just the number, please.

[[record]]
molecule = "CN(C)CCCN1c2ccccc2CCc2ccc(Cl)cc21"
obs_value = 2.22


The recorded Log 1/ED50 for OCCN1CCN(CCCN2c3ccccc3Sc3ccc(Cl)cc32)CC1 is 2.63

// Log 1/ED50 value for CC(=O)c1ccc2c(c1)N(CCCN1CCN(CCO)CC1)c1ccccc1S2 : 2.12

Notebook: CC(CN1c2ccccc2Sc2ccccc21)N(C)C (centres undefined) , Log 1/ED50 read as 1.82

====

Settings: octanol/water
Description: Partition coefficient (logD, measured by HPLC, log k')
API: label(entry) gives true (1) if the entry's Log k' is strictly smaller than 1; on equality or larger values it gives false (0).

[[record]]
compound = "COc1ccccc1N1CCN(CCCC(=O)c2ccc(F)cc2)CC1 [FLUANISONE]"
class_label = "false (0)"

[[record]]
compound = "CCC(=O)O[C@](Cc1ccccc1)(c1ccccc1)[C@H](C)CN(C)C [PROPOXYPHENE]"
class_label = "false (0)"

[[record]]
compound = "O=C(NC1CCN(CCc2c[nH]c3ccccc23)CC1)c1ccccc1 [INDORAMIN]"
class_label = "true (1)"

[[record]]
compound = "CN1CCC(=C2c3ccccc3C=Cc3ccccc32)CC1 [CYPROHEPTADINE]"
class_label = "false (0)"

[[record]]
compound = "O=[N+]([O-])c1ccccc1 [NITROBENZENE]"
class_label = "true (1)"

[[record]]
compound = "c1ccccc1 [BENZENE]"
class_label = "true (1)"

[[record]]
compound = "CN(C)CCCN1c2ccccc2CCc2ccccc21 [IMIPRAMINE]"
class_label = "false (0)"

[[record]]
compound = "CCCCOc1cc(C(=O)NCCN(CC)CC)c2ccccc2n1 [DIBUCAINE]"
class_label = "false (0)"


Does the reported Log k' of the following compound sit strictly below 1? CN(C)CCCN1c2ccccc2Sc2ccc(Cl)cc21 [CHLORPROMAZINE]
false (0)

Report whether reported Log k' is lower than 1 (strictly) for CN(C)CCC=C1c2ccccc2COc2ccccc21 [DOXEPIN]
false (0)

Below 1 on Log k'? Entry CNCCC=C1c2ccccc2CCc2ccccc21 [NORTRIPTYLINE]
false (0)

====

Measured logD values are reported for all entries that follow.
Assay: Partition coefficient (logD7.4)
Conditions: octanol/water, pH 7.4
# answer = number (no unit)

logD reported for this compound CN(C)CCCN1c2ccccc2Sc2ccc(Cl)cc21 [CHLORPROMAZINE] : 3.221

The recorded logD for entry CN(C)CCC=C1c2ccccc2CCc2ccccc21 [AMITRIPTYLINE] equals 2.83

In plain terms, CCC(=O)O[C@](Cc1ccccc1)(c1ccccc1)[C@H](C)CN(C)C [PROPOXYPHENE] has a documented logD of 2.36

So for COc1ccccc1N1CCN(CCCC(=O)c2ccc(F)cc2)CC1 [FLUANISONE] , the logged logD turned out to be 2.93

# logD (compound: CC(=O)c1ccc2c(c1)N(CCCN1CCN(CCO)CC1)c1ccccc1S2 [ACETOPHENAZINE] ) is 2.62

Per the records, this compound ( CN(C)CCC(c1ccc(Cl)cc1)c1ccccn1 (stereo not given) [CHLORPHENIRAMINE] ) has logD equal to 1.38

// Cc1cccc(C)c1NC(=O)C1CCCCN1C (stereo not given) [MEPIVACAINE] : logD value = 1.27

Recorded result, CN(C)CCCN1c2ccccc2CCc2ccc(Cl)cc21 [CLOMIPRAMINE] , logD: 3.24

Kindly note the recorded logD for CN(C)CCCN1c2ccccc2Sc2ccccc21 [PROMAZINE] , which is 2.48

// recorded logD for CN1CCC(=C2c3ccccc3C=Cc3ccccc32)CC1 [CYPROHEPTADINE] : 3.11

====

We begin with a simple list: items and their reported logD.
Experiment: physchem
Details: octanol/water, pH 7.4
# respond with the number and nothing more

[[record]]
compound = "CN(C)CCCN1c2ccccc2Sc2ccccc21 [PROMAZINE]"
reported_property = "logD"
obs_value = 2.54

[[record]]
compound = "O=C(NC1CCN(CCc2c[nH]c3ccccc23)CC1)c1ccccc1 [INDORAMIN]"
reported_property = "logD"
obs_value = 2.28


Please find the next compound below.
Entry CN1CCC(=C2c3ccccc3C=Cc3ccccc32)CC1 [CYPROHEPTADINE] ; logD = 3.14
